experiment: qHTS for Inhibitors of human tyrosyl-DNA phosphodiesterase 1 (TDP1): qHTS in cells in presence of CPT; also: nearly all actives have a fitted effect of over 55% in size; also: potency is read from the fitted curve at half-maximal effect
measurement-parameters: chicken DT40 Tdp1-/-;hTDP1 cells + 20 nM CPT, ATP luminescence, 48 h; series mostly up to 46.2 µM
About 50,000 (12%) of roughly 420,000 compounds were called active. About 26% were inconclusive and are not listed. Only a selection was taken, and actives are over-represented in it overall.
readout-type: Potency

[[record]]
compound = "Cc1cc(C)cc(NC(=O)Cn2c(=O)c3ccccc3n3nncc23)c1"
test_result = "inactive"

[[record]]
compound = "Cc1nn(C)c(C)c1NS(=O)(=O)c1ccc(OC(F)(F)F)cc1"
test_result = "23.1 µM (active)"

[[record]]
compound = "COc1ccc(NC(=S)N2CCCC(CO)C2)c(OC)c1 (configuration not stated)"
test_result = "inactive"

[[record]]
compound = "Cc1cc(C)cc(NC(=O)CSc2oc(-c3ccccc3)nc2S(=O)(=O)c2ccc(Cl)cc2)c1"
test_result = "5.17 µM (active)"

[[record]]
compound = "O=C(OCc1ccc([N+](=O)[O-])cc1)c1ccccn1"
test_result = "inactive"

[[record]]
compound = "COc1ccc(CC(=O)N[C@@H]2c3cc(OC)c(OC)cc3C[C@H]2OCc2ccccc2)cc1"
test_result = "inactive"

[[record]]
compound = "COc1ccccc1C(=O)N(C1=NC(C)CS1)c1ccc(Cl)cc1 (configuration not stated)"
test_result = "inactive"

[[record]]
compound = "CC1(C)CN(CCc2ccccc2)C(=O)[C@H]1CC(=O)Nc1ccc(Br)cc1"
test_result = "inactive"

[[record]]
compound = "Nc1ncc(S(=O)(=O)Nc2ccc(OC(F)(F)F)cc2)cn1"
test_result = "inactive"

[[record]]
compound = "COc1cc(C(=O)Nn2c(O)c(C3=c4ccccc4=NC3=O)sc2=S)ccc1O"
test_result = "inactive"

[[record]]
compound = "CC(=O)c1cccc(NC(=O)c2cc(C)nn2-c2ccccc2)c1"
test_result = "inactive"

[[record]]
compound = "COc1ccc(C)cc1N(C)C(=O)c1c(C)oc2ncnc(N3CCOCC3)c12"
test_result = "inactive"

[[record]]
compound = "CCOC(=O)C1=CN(Cc2ccc(Br)cc2)S(=O)(=O)NC1C (configuration not stated)"
test_result = "inactive"

[[record]]
compound = "COC(=O)[C@@H]1CC(O)CN1C(=O)C12CC3CC(CC(C3)C1)C2 (some centres not stated)"
test_result = "inactive"

[[record]]
compound = "O=C(CSc1nc2nccnc2c(=O)n1CCc1c[nH]c2ccccc12)Nc1ccccc1F"
test_result = "10.3 µM (active)"

[[record]]
compound = "COc1ccc(NC(=O)CN(C)C(=O)Cc2coc3cc(C)c(C)cc23)cc1"
test_result = "inactive"

[[record]]
compound = "C[C@H](NC(=O)C1CC(=O)N(c2ccc3c(c2)OCCO3)C1)C(=O)N1CCC(C(=O)O)CC1 (some centres not stated)"
test_result = "inactive"

[[record]]
compound = "O=[N+]([O-])c1ccc(/C=C/c2ccc3cccnc3c2)cc1"
test_result = "7.94 µM (active)"

[[record]]
compound = "Cc1cc(C)cc(NC(=O)CSc2nc3nccnc3c(=O)n2CCc2c[nH]c3ccccc23)c1"
test_result = "14.6 µM (active)"

[[record]]
compound = "O=C(Oc1ccc([N+](=O)[O-])cc1)c1ccc2ccccc2n1"
test_result = "inactive"

[[record]]
compound = "Cc1nn(Cc2ccccc2)c(C)c1NS(=O)(=O)c1ccccc1"
test_result = "inactive"

[[record]]
compound = "Cc1cc(C)cc(NC(=O)CSc2ccccc2)c1"
test_result = "inactive"


----------
experiment: qHTS for Inhibitors of human tyrosyl-DNA phosphodiesterase 1 (TDP1): qHTS in cells in presence of CPT; also: nearly all actives have a fitted effect of over 55% in size
measurement-parameters: chicken DT40 Tdp1-/-;hTDP1 cells + 20 nM CPT, ATP luminescence, 48 h; series mostly up to 46.2 µM
In all, about 420,000 compounds went through this assay and about 50,000 (12%) were called active. Another 26% or so got no clear call; they are omitted. Calls come from the whole dose curve; as a rule, active = well fitted inhibition curve with a large enough effect; inconclusive = small, poorly fitted or top-dose-only effect; inactive = flat fitted curve, though single readings scatter. Shown is part of a subset that was picked to be rich in actives.
Labels: active, inactive

[[record]]
compound = "CC(NC(=O)Cn1cc(C(F)(F)F)cc(Cl)c1=O)c1ccccc1 (stereo not given)"
assigned_label = "inactive"

[[record]]
compound = "Cc1ccc(CNC(=O)[C@@H](NC(=O)Cc2ccccc2)C(C)C)cc1"
assigned_label = "inactive"

[[record]]
compound = "CCn1cc(CCC(=O)NCc2ccc(F)cc2)c2ccccc21"
assigned_label = "active"

[[record]]
compound = "CC(=O)Nc1c(C)nn(-c2ccccc2)c1N1CCC(C(=O)Nc2cc(Cl)ccc2C)CC1"
assigned_label = "inactive"

[[record]]
compound = "Cc1ccc(Cn2cc(CCC(=O)NCc3ccc(OC(C)C)cc3)c3ccccc32)cc1"
assigned_label = "active"


----------
experiment: qHTS for Inhibitors of human tyrosyl-DNA phosphodiesterase 1 (TDP1): qHTS in cells in presence of CPT; also: nearly all actives have a fitted effect of over 55% in size; also: potency is read from the fitted curve at half-maximal effect
measurement-parameters: chicken DT40 Tdp1-/-;hTDP1 cells + 20 nM CPT, ATP luminescence, 48 h; series mostly up to 46.2 µM
About 50,000 (12%) of roughly 420,000 compounds were called active. About 26% were inconclusive and are not listed. The sample holds actives, similar compounds and a random draw of the others, so the mix is not that of the screen.
readout-type: Potency

[[record]]
compound = "Cc1ccsc1CN(C(=O)c1oc2ccc(Br)cc2c1C)C1CCS(=O)(=O)C1 (stereo unspecified)"
readout_type = "Potency"
test_result = "9.2 µM (active)"

[[record]]
compound = "CC(C)=CCN1CCN(Cc2cc3ccccc3[nH]2)CC1CCO (stereo unspecified)"
readout_type = "Potency"
test_result = "inactive"

[[record]]
compound = "COc1ccccc1CNC(=O)C1CCN(S(=O)(=O)c2ccc3c(c2)OCCO3)CC1"
readout_type = "Potency"
test_result = "inactive"

[[record]]
compound = "CC(=O)NC(CC(=O)Nc1cccc(S(=O)(=O)N2CCCC2)c1)c1ccccc1 (stereo unspecified)"
readout_type = "Potency"
test_result = "inactive"

[[record]]
compound = "Cc1cccc(C)c1OCC(=O)NC(Cc1c[nH]c2ccccc12)C(=O)O (stereo unspecified)"
readout_type = "Potency"
test_result = "inactive"

[[record]]
compound = "CC(=O)Nc1ccc(NC(=O)C(C)OC(=O)C2CC(=O)N(CCc3ccccc3)C2)cc1 (stereo unspecified)"
readout_type = "Potency"
test_result = "inactive"

[[record]]
compound = "COC(=O)c1ccc(CSc2ccc(S(=O)(=O)N3CCCCC3)cn2)cc1"
readout_type = "Potency"
test_result = "inactive"

[[record]]
compound = "COc1ccc(-c2cc(C(=O)NC(Cc3c[nH]c4ccccc34)C(=O)O)c(C)o2)cc1OC (stereo unspecified)"
readout_type = "Potency"
test_result = "29.1 µM (active)"

[[record]]
compound = "CC(=O)Nc1cc2ccc(OC(C)=O)cc2oc1=O"
readout_type = "Potency"
test_result = "inactive"

[[record]]
compound = "Cc1cc(C)c(OCC(=O)N(Cc2cccs2)C2CCS(=O)(=O)C2)c(C)c1 (stereo unspecified)"
readout_type = "Potency"
test_result = "inactive"

[[record]]
compound = "COc1cc(C2C(C(=O)c3cccs3)=C(O)C(=O)N2CCN2CCOCC2)ccc1OCCC(C)C (stereo unspecified)"
readout_type = "Potency"
test_result = "inactive"

[[record]]
compound = "COc1ccc(OC)c(S(=O)(=O)n2c([N+](=O)[O-])cnc2C)c1"
readout_type = "Potency"
test_result = "inactive"

[[record]]
compound = "CCOC(=O)N1CCN(C(=O)C2CCN(Cc3ccc(OC)cc3OC)CC2)CC1"
readout_type = "Potency"
test_result = "inactive"

[[record]]
compound = "O=c1oc2cc(O)ccc2cc1-c1ccc(F)cc1"
readout_type = "Potency"
test_result = "20.6 µM (active)"

[[record]]
compound = "COc1ccccc1N1CCN(CCCNC(=O)c2cnn(-c3ccccc3Cl)c2C2CCN(C(=O)OC(C)(C)C)CC2)CC1"
readout_type = "Potency"
test_result = "8.2 µM (active)"

[[record]]
compound = "Cc1ccccc1NC(=O)Cn1c(=O)n(Cc2ccco2)c(=O)c2ccc(C(=O)NC3CCCC3)cc21"
readout_type = "Potency"
test_result = "inactive"

[[record]]
compound = "Cc1cc(C)cc(OCC(=O)OCC(=O)NC2CCCC2)c1"
readout_type = "Potency"
test_result = "inactive"

[[record]]
compound = "O=C(CSc1ncn[nH]1)Nc1nc2c(F)c(F)c(F)cc2s1"
readout_type = "Potency"
test_result = "inactive"

[[record]]
compound = "COc1ccc(-c2cc(C(=O)NC(C(=O)O)C(C)C)c(C)o2)cc1OC (stereo unspecified)"
readout_type = "Potency"
test_result = "inactive"

[[record]]
compound = "COc1ccccc1CN1CCC(CNC(=O)c2cnn(-c3cccc(Cl)c3)c2C2CCN(C(=O)OC(C)(C)C)CC2)CC1"
readout_type = "Potency"
test_result = "7.31 µM (active)"

[[record]]
compound = "Cc1ccccc1OCC(=O)N(Cc1cccc(F)c1)C1CCS(=O)(=O)C1 (stereo unspecified)"
readout_type = "Potency"
test_result = "inactive"

